assay: Acute toxicity in secondary evaluation when administered intravenously (iv) against aconitine-induced arrhythmias in anesthetized rats; assay type: organism-based; conditions: rat, in vivo
Property: LD50

>>> endpoint_result("CC1(C)C=C(C(=O)NCCCN2C(=O)c3ccccc3C2=O)C(C)(C)N1[O]")
"187 mg/kg"

###

test system: Rattus norvegicus; experiment: Incidence of arrhythmias in rats after a intravenal administration at 4 mg/kg, expressed as no. of positive cases out of no. of tested cases (10); assay type: functional
Listed compounds paired with reported No. of positive cases
Property: No. of positive cases

>>> endpoint_result("Cc1cc(Cl)ccc1OCC(=O)NCCNC(=O)C1=CC(C)(C)NC1(C)C")
2
>>> endpoint_result("CC1(C)C=C(C(=O)NCCCNCc2ccccn2)C(C)(C)N1")
0
>>> endpoint_result("CC1(C)C=C(C(=O)NCCCNCc2ccc(C(F)(F)F)cc2)C(C)(C)N1")
7
>>> endpoint_result("CC1(C)C=C(C(=O)NCCCNCc2ccc(Oc3ccccc3)cc2)C(C)(C)N1")
10
>>> endpoint_result("CC1(C)CC(C(=O)NCCCNCc2ccccc2Cl)C(C)(C)N1 (stereo not given)")
7
>>> endpoint_result("CC1(C)C=C(C(=O)NCCCCNC(=O)c2cccs2)C(C)(C)N1")
6
>>> endpoint_result("COc1ccc(CNC(=O)C2=CC(C)(C)NC2(C)C)cc1")
0
>>> endpoint_result("CC1(C)C=C(C(=O)NCCNC(=O)c2ccc3c(c2)OCO3)C(C)(C)N1")
2
>>> endpoint_result("CC1(C)C=C(C(=O)NCCCNC(=O)C2CC=CCC2C(=O)O)C(C)(C)N1 (stereo not given)")
0
>>> endpoint_result("C=CCc1ccc(OCC(=O)NCCNC(=O)C2=CC(C)(C)NC2(C)C)c(OC)c1")
7

###

system: Rattus norvegicus; test: Incidence of arrhythmias in rats after a intravenal administration at 4 mg/kg, expressed as no. of positive cases out of no. of tested cases (10); format: functional
// No. of positive cases lookup, one value per entry
Property: No. of positive cases

>>> endpoint_result("CC1(C)C=C(C(=O)NCCCN2C(=O)C3CC=CCC3C2=O)C(C)(C)N1 (configuration not stated)")
2
>>> endpoint_result("CC(=O)Nc1ccc(CNCCNC(=O)C2=CC(C)(C)NC2(C)C)cc1")
2
>>> endpoint_result("Cc1cccc(C)c1NC(=O)C(C)NCCCNC(=O)C1CC(C)(C)NC1(C)C (configuration not stated)")
10
>>> endpoint_result("CC1(C)C=C(C(=O)NCCNC(=O)c2ccccn2)C(C)(C)N1")
2
>>> endpoint_result("CC1(C)C=C(C(=O)NCCCNC(=O)COc2ccc(Cl)cc2Cl)C(C)(C)N1")
5
>>> endpoint_result("CC1(C)CC(C(=O)NCCCNCc2ccsc2)C(C)(C)N1 (configuration not stated)")
7
>>> endpoint_result("CC(CNC(=O)C1=CC(C)(C)NC1(C)C)NCc1cccs1 (configuration not stated)")
4
>>> endpoint_result("CC1(C)C=C(C(=O)NCC(O)CN2C(=O)c3ccccc3C2=O)C(C)(C)N1 (configuration not stated)")
10
>>> endpoint_result("CC1(C)C=C(C(=O)NCC(O)CNC(=O)c2cccs2)C(C)(C)N1 (configuration not stated)")
7
>>> endpoint_result("CC1(C)C=C(C(=O)NCCCNCc2ccncc2)C(C)(C)N1")
0
>>> endpoint_result("C=CCc1ccc(OCC(=O)NCCCNC(=O)C2CC(C)(C)NC2(C)C)c(OC)c1 (configuration not stated)")
0
>>> endpoint_result("CC1(C)C=C(C(=O)NCCCNC(=O)Cc2ccccc2)C(C)(C)N1")
6
>>> endpoint_result("CC1(C)C=C(C(=O)NCCNC(=O)C(O)c2ccccc2)C(C)(C)N1 (configuration not stated)")
0
>>> endpoint_result("CC1(C)C=C(C(=O)NC(c2ccccc2)c2ccccc2)C(C)(C)N1")
5
>>> endpoint_result("CC1(C)C=C(C(=O)NCCCNCc2cccs2)C(C)(C)N1")
7
>>> endpoint_result("COc1cccc(CNCCCNC(=O)C2=CC(C)(C)NC2(C)C)c1OCc1ccccc1")
10
>>> endpoint_result("CC1(C)C=C(C(=O)NCCCNCc2cccc(O)c2)C(C)(C)N1.Cl")
4
>>> endpoint_result("Cc1nc2ccccc2c(=O)n1CC(O)CNC(=O)C1=CC(C)(C)NC1(C)C (configuration not stated)")
4
>>> endpoint_result("CC1(C)C=C(C(=O)NCCCNCc2ccc[nH]2)C(C)(C)N1")
4
>>> endpoint_result("CC1(C)C=C(C(=O)NCCCNCc2ccsc2)C(C)(C)N1")
9
>>> endpoint_result("C/C=C/c1ccc(OCC(=O)NCCNC(=O)C2=CC(C)(C)NC2(C)C)c(OC)c1")
7
>>> endpoint_result("CC1(C)C=C(C(=O)NCCCNCc2cccc(O)c2)C(C)(C)N1")
4
